Source of measurements: patent US20240400654A1

OD450 nm: recorded values
biological target: HRgpA-6H (Porphyromonas gingivalis) (UniProt P28784); experiment: ELISA, FASEBA Fab supernatant on coated HRgpA-6H
// keep it numeric: no unit symbol after the value

Binder	OD450 nm
KB001 mouse Fab variant VL Y92D (Fab, V domains shown) VH: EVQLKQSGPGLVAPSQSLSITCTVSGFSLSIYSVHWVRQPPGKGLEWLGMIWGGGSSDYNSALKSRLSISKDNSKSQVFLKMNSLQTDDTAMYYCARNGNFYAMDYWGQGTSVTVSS VL: QIVLTQSPAIMSASLGERVTMTCTASSSVSSSFLHWYQQKPGSSPQLWIYSTSNLASGVPARFSGSGSGTSYSLTISSMEAEDAATYYCHQDHHSPYIYTFGGGTKLEIK	0.758
KB001 mouse Fab variant VL A56Q (Fab, V domains shown) VH: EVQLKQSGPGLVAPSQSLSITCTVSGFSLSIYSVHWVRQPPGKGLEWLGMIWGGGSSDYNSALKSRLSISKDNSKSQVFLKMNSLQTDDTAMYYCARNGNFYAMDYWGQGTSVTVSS VL: QIVLTQSPAIMSASLGERVTMTCTASSSVSSSFLHWYQQKPGSSPQLWIYSTSNLQSGVPARFSGSGSGTSYSLTISSMEAEDAATYYCHQYHHSPYIYTFGGGTKLEIK	0.705

Attention now turns to another entry.
// query Any idea what its OD450 nm is? The binder is KB001 mouse Fab variant VL Y97H (Fab, V domains shown) VH: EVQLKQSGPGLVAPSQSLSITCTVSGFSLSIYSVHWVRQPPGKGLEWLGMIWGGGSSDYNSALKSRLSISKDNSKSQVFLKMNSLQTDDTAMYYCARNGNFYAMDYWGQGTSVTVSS VL: QIVLTQSPAIMSASLGERVTMTCTASSSVSSSFLHWYQQKPGSSPQLWIYSTSNLASGVPARFSGSGSGTSYSLTISSMEAEDAATYYCHQYHHSPHIYTFGGGTKLEIK
// result 0.775
